Where do these numbers come from? They come from paper PMC4452589.

- assay protocol: [11C]GSK1034702 PET brain distribution and kinetics in healthy male humans
- Format: in vivo
- test settings: human, thalamus, intravenous, Thalamus, Subject 4 Scan 1 (baseline), read-out: V T
result type: Kp
Please reply with the number alone, leaving off any unit.

Which Kp is reported for this compound? [11CH3]c1cc(F)c2[nH]c(=O)n(C3CCN(C4CCOCC4)CC3)c2c1 [[^11C]GSK1034702] 5.74

###

- assay protocol: plasma protein binding by equilibrium dialysis, monkey
- Format: in vitro ADME
- test settings: equilibrium dialysis 5 h, mean ± SD, n = 6, read-out: Plasma protein binding (converted)
- Protocol: The in vitro brain and plasma protein binding of GSK1034702 across a range of species was determined using equilibrium dialysis as described previously.
result type: fraction unbound at 5 h, 1 μg/mL
The reply should be a number, written without any unit.

# input compound: Cc1cc(F)c2[nH]c(=O)n(C3CCN(C4CCOCC4)CC3)c2c1 ; wanted: its fraction unbound at 5 h, 1 μg/mL 0.583
